Origin of measurements: patent US10487345B2

molecular target: GFLOMT1 (Glaucium flavum, UniProt A0A0H4IRD0); assay: Standard OMT assay, substrate specificity of recombinant GFLOMT1; assay type: biochemical; conditions: standard OMT assay, in the presence of SAM
Catalogue of compounds with associated conversion of substrate by GFLOMT1
Supply the numeric figure in %, leaving out any unit text.

compound | tgt | property | readout.units | reported.value
COc1cc2c(cc1O)[C@@H]1Cc3ccc(OC)c(OC)c3CN1CC2 (racemic) [(R,S)-Tetrahydrocolubamine, Tetrahydrocolumbamine] | GFLOMT1 (Glaucium flavum, UniProt A0A0H4IRD0) | conversion of substrate by GFLOMT1 | % | 19
COc1cc2c(cc1O)C1Cc3ccc(OC)c(O)c3CN1CC2 (racemic) [(R,S)-Scoulerine, Scoulerine] | GFLOMT1 (Glaucium flavum, UniProt A0A0H4IRD0) | conversion of substrate by GFLOMT1 | % | 32
Oc1ccc(CC2NCCc3cc(O)c(O)cc32)cc1O (racemic) [(R,S)-Norlaudanosoline, Norlaudanosoline] | GFLOMT1 (Glaucium flavum, UniProt A0A0H4IRD0) | conversion of substrate by GFLOMT1 | % | 96

Lookup: Give the value of conversion of substrate by GFLOMT1 reported for the following: COc1cc2c(cc1O)C(Cc1ccc(O)c(O)c1)N(C)CC2 (racemic) [(R,S)-6-O-Methyllaudanosoline, 6-O-Methyllaudanosoline]
Found: 68

Lookup: Give the value of conversion of substrate by GFLOMT1 reported for the following: COc1ccc(C[C@H]2c3cc(O)c(OC)cc3CCN2C)cc1O [(S)-Reticuline, Reticuline]
Found: 6

Lookup: Give the value of conversion of substrate by GFLOMT1 reported for the following: COc1cc2c(cc1O)C(Cc1ccc(O)c(O)c1)NCC2 (racemic) [(R,S)-6-O-Methylnorlaudanosoline, 6-O-Methylnorlaudanosoline]
Found: 87
